- target_under_test: dopamine D-1 receptor
- condition_info: read-out: EC50 (agonist activity in adenylate cyclase assay); tissue from goldfish retina or rat striatum
pEC50: −log10 of the molar value.
Would you mind labelling by pEC50? At or over 8 is TRUE, under is FALSE.

Worked examples, 5 molecules total:
- molecule: "CN(C)C[C@@H]1O[C@H](C2CCCCC2)Cc2c1ccc(O)c2O (relative stereo)"
  target_under_test: "dopamine D-1 receptor"
  class_label: "FALSE"
- molecule: "NC[C@H]1C[C@@H](c2ccc3ccccc3c2)Cc2c1ccc(O)c2O (relative stereo)"
  target_under_test: "dopamine D-1 receptor"
  class_label: "FALSE"
- molecule: "NC[C@H]1O[C@@H](CN2CCOCC2)Cc2c1ccc(O)c2O (relative stereo)"
  target_under_test: "dopamine D-1 receptor"
  class_label: "FALSE"
- molecule: "NC[C@H]1O[C@@H](c2cccc(C(F)(F)F)c2)Cc2c1ccc(O)c2O (relative stereo)"
  target_under_test: "dopamine D-1 receptor"
  class_label: "TRUE"
- molecule: "NC[C@H]1O[C@@H](c2ccc(C(F)(F)F)cc2)Cc2c1ccc(O)c2O (relative stereo)"
  target_under_test: "dopamine D-1 receptor"
  class_label: "FALSE"

// switching to the query molecule
[in] pEC50 >= 8 for CCOC(=O)CC(=O)NC[C@@H]1Cc2c(ccc(O)c2O)[C@H](CN)O1 (relative stereo) ?
[out] FALSE
